tested-system: T1, Human Semaphorin3A-Sema Domain, TPP-19068 (human, UniProt Q14563 21-569)
T1 construct: produced inhouse in HEK293-6E; also called human monovalent Sema3A domain
T1 sequence: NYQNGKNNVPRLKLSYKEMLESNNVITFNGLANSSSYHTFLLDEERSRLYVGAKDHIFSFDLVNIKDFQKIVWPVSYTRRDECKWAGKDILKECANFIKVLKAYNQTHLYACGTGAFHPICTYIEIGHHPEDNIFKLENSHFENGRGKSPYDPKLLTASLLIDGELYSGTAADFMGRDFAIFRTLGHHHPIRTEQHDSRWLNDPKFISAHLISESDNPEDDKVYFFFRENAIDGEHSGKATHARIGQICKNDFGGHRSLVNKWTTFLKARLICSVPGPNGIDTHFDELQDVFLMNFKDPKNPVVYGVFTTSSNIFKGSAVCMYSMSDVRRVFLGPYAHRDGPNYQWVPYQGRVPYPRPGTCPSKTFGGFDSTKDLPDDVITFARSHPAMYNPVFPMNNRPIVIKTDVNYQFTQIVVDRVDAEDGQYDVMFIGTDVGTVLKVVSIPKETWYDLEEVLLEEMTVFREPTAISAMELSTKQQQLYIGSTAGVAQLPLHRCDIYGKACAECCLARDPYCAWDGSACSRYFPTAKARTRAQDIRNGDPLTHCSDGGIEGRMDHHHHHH
experiment-notes: SPR, captured antibody, Sema3A domain analyte
endpoint: Binding Activity [%] (%)
Hi! Could you send only the number? It should be in %, unit omitted.

Some solved entries appear below for comparison.
{"binder": "TPP-30789 (antibody, human IgG1, kappa, V domains shown, prior art, WO 2020/225400; also called BI clone II; Böhringer (BI) Clone II) VH: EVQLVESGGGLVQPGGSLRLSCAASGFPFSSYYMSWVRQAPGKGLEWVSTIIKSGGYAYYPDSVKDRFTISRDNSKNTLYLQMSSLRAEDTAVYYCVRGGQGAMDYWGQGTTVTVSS VL: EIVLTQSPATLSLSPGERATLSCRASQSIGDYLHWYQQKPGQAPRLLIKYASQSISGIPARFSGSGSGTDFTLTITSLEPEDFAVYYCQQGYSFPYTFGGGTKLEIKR", "endpoint": "Binding Activity [%]", "reported-result": 106}
{"binder": "TPP-30790 (antibody, human IgG1, kappa, V domains shown, prior art, WO 2020/225400; also called BI clone III; Böhringer (BI) Clone III) VH: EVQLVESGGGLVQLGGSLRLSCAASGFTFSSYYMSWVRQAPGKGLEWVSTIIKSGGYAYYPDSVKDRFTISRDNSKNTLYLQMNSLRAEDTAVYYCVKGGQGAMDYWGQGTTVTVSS VL: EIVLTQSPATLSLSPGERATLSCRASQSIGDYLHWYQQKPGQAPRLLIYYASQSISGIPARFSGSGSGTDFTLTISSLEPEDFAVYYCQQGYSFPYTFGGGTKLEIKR", "endpoint": "Binding Activity [%]", "reported-result": 93}
{"binder": "TPP-30791 (antibody, human IgG1, kappa, V domains shown, prior art, WO 2020/225400; also called BI clone IV; Böhringer (BI) Clone IV) VH: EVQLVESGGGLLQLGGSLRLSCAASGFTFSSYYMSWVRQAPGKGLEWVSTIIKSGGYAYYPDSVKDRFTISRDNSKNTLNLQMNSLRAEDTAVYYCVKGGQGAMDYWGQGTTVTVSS VL: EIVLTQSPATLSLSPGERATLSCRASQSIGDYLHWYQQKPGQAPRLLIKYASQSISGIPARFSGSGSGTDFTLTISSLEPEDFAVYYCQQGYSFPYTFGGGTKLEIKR", "endpoint": "Binding Activity [%]", "reported-result": 107}

Let us move to another entry and its Binding Activity [%].
Q: Please give the documented Binding Activity [%] of TPP-15374 (antibody, human IgG1, lambda, V domains shown, human IgG1; also called IgG1, hit from panning; parental mAb) VH: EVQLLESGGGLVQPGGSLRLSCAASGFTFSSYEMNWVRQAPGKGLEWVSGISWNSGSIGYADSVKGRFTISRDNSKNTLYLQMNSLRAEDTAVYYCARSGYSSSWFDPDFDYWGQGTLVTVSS VL: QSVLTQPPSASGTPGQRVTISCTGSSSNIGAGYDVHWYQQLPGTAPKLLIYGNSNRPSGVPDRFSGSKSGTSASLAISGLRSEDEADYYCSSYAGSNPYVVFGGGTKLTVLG
Result: 10
